# target system: Sigma non-opioid intracellular receptor 1 (Rattus norvegicus, UniProt Q9R0C9)
# Sequence (Q9R0C9 whole entry): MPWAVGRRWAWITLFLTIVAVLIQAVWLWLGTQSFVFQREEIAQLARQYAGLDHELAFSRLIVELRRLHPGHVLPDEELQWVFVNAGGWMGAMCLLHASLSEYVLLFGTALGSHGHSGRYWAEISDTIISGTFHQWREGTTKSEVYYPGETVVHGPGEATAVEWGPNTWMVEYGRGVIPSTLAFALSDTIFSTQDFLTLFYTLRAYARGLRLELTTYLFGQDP
# method notes: Inhibitory concentration against radioligand [3H]3-PPP binding to Sigma opioid receptor type 1 in rat brain membrane
Threshold 30 nM. IC50 below it: class 1. IC50 at it or above: class 0.

CCCN(CCC)CCc1cccc(OC)c1OCc1ccccc1.O=C(O)C(=O)O	class 1
CN1CCc2cccc3c2[C@H]1Cc1ccc(O)c(O)c1-3	class 0
COc1ccccc1N1CCN(CCCc2cc(Cl)ccc2OCCc2ccccc2)CC1	class 0
CCCN(CCC)CCc1ccc(OC)c(OCCc2ccc(F)cc2)c1	class 1

QUERY: Is 30 nM strictly greater than the molecule's reported IC50? molecule: COc1ccc(CCN2CCN(c3ccccc3OC)CC2)cc1OCCc1ccccc1
RESULT: class 1

QUERY: Is 30 nM strictly greater than the molecule's reported IC50? molecule: CCCN(CCCO)CCc1ccc(OC)c(OCCc2ccccc2)c1
RESULT: class 1

QUERY: Is 30 nM strictly greater than the molecule's reported IC50? molecule: CCCN(CCC)CCc1ccc(OCCc2ccccc2)c(OC)c1
RESULT: class 1

QUERY: Is 30 nM strictly greater than the molecule's reported IC50? molecule: CCCN(CCC)CCc1ccc(OC)c(OCCc2ccc(OC)c(OC)c2)c1
RESULT: class 0

QUERY: Is 30 nM strictly greater than the molecule's reported IC50? molecule: Clc1ccc(OCCc2ccccc2)c(CCN2CCOCC2)c1
RESULT: class 0

QUERY: Is 30 nM strictly greater than the molecule's reported IC50? molecule: CCCN(CCC)CCCc1ccc(OC)c(OCCc2ccccc2)c1.Cl
RESULT: class 1

QUERY: Is 30 nM strictly greater than the molecule's reported IC50? molecule: CCCN(CCC)CCCCc1cc(Cl)ccc1OCCc1ccccc1
RESULT: class 1

====

# target system: UniProtKB P61169
# Sequence (P61169 whole entry): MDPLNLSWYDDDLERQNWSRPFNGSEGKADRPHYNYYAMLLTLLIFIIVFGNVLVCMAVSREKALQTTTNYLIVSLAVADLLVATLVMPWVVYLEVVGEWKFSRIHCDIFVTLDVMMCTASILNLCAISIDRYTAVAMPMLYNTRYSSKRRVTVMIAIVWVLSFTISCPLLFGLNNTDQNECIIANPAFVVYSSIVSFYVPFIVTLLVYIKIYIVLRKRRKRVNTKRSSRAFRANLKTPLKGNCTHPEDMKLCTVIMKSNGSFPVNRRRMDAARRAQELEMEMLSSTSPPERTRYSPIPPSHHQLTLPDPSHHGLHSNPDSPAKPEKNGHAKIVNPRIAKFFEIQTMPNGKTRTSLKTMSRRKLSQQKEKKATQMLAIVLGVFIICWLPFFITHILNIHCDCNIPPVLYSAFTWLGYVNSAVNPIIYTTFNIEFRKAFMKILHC
# method notes: Inhibitory concentration against radioligand [3H](-)-sulpiride binding to Dopamine receptor D2 in rat
pIC50: −log10 of the molar value.
reported metric: pIC50

Cc1cccc(N2CCN(CCCc3cc(Cl)ccc3OCCc3ccccc3)CC2)n1	6.53

Moving on to the next compound.
The recorded pIC50 for entry CCCN(CCC)CCc1ccc(OC)c(OCCc2ccccc2)c1.Cl equals < 6.00

====

# target system: 5-hydroxytryptamine receptor 1A (Rattus norvegicus, UniProt P19327)
# Sequence (P19327 whole entry): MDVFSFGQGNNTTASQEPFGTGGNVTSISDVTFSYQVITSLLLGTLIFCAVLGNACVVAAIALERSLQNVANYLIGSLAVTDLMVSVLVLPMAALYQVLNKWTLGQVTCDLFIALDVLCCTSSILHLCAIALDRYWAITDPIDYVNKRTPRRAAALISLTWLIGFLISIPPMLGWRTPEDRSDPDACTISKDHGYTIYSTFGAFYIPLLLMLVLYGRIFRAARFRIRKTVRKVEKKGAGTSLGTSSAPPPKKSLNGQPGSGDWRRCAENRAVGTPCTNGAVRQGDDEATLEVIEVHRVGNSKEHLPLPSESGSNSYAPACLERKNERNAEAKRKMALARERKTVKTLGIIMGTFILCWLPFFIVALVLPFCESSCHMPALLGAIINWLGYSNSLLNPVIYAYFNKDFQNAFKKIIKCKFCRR
# method notes: Inhibitory concentration against radioligand [3H]hydroxy-2-(di-n-propylamino)-tetralin binding to 5-hydroxytryptamine 1A receptor in rat
reported metric: IC50 (µM)
Give the value in µM but do not write µM after it.

Examples with answers:
CCCN(CCC)CCc1cccc(OC)c1OCCc1ccccc1.Cl	3.58
CCCN(CCC)CCc1ccc(OC)c(OCCc2ccccc2)c1.Cl	6.46

The recorded IC50 for entry CCCN(CCC)CCc1cc(Cl)ccc1OCCc1ccccc1.O=C(O)C(=O)O equals 0.289
